# TARGET_SYSTEM: tau fibrils (Homo sapiens, UniProt P10636)
# Sequence (P10636 560-692 limits assumed): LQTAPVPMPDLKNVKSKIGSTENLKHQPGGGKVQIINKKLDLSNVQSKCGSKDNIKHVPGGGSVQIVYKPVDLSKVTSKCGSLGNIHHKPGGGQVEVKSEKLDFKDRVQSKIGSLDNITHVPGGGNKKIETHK
# EXPERIMENTAL_PROTOCOL: ThT competitive assay for tau fibrils (Table 3)
# Format: binding
# Parameters: made in house; host or cells: E. coli
# RECORDED_CONDITIONS: tau fibrils; individual determinations; read-out: EC50m (nM) EC50
READOUT_TYPE: EC50 (nM)
State the answer as a number, implicitly in nM.

- COMPOUND: "COc1ccc(/C=C/c2ccc(-c3cnc(C)s3)s2)cc1 [TZ-34-43]"
  VALUE_UNIT: "nM"
  EC50: 1260
- COMPOUND: "COc1ccc(/C=C/c2cccs2)cc1 [TZ-34-26]"
  VALUE_UNIT: "nM"
  EC50: 3350

Now look at this one.
Return value of EC50 for input COc1ccc2nc(/C=C/c3ccnc(OC)c3)ccc2c1 [TZ-36-28-2T] , no commentary. 82

* * *

Quick list: EC50 per entry.
# TARGET_SYSTEM: α-synuclein fibrils (Homo sapiens, UniProt P37840)
# Construct: made in house; host or cells: E. coli BL21(DE3)RIL
# EXPERIMENTAL_PROTOCOL: ThT competitive assay for α-synuclein fibrils (Table 1)
# Type: binding
# RECORDED_CONDITIONS: α-synuclein fibrils; average; read-out: EC50 (nM) EC50 (avg)
State the value with its unit after it.

- COMPOUND: "COc1ccc2nc(/C=C/c3ccccn3)ccc2c1 [TZ-36-34]"
  EC50: "504 nM"
- COMPOUND: "COc1ccc2nc(/C=C/c3ccncc3Cl)ccc2c1 [TZ-36-48]"
  EC50: "1080 nM"
- COMPOUND: "COC(=O)c1ccc2oc(-c3ccc(-c4ccc(F)nc4)c(C(F)(F)F)c3)nc2c1 [TZ-31-125]"
  EC50: "4090 nM"
- COMPOUND: "Fc1ccc(/C=C/c2ccsc2)cc1 [TZ-34-59]"
  EC50: "2250 nM"

Tell me EC50 of COc1ccc(/C=C/c2ccsc2)cc1 [TZ-34-28] when tested on α-synuclein fibrils (Homo sapiens, UniProt P37840). 449 nM

Tell me EC50 of O=[N+]([O-])c1ccc2nc(/C=C/c3cnccn3)ccc2c1 [TZ-36-20] when tested on α-synuclein fibrils (Homo sapiens, UniProt P37840). 2420 nM

* * *

Quick list: Biodistribution: Spleen per entry.
# EXPERIMENTAL_PROTOCOL: Biodistribution in male Balb/C mice
# Format: in vivo
# RECORDED_CONDITIONS: 30 min post injection, tail vein; mean ± SD, n = 4
State the answer as a number, implicitly in % ID/g.

Below: 3 compounds and their reported Biodistribution: Spleen.
- COMPOUND: "COC(=O)c1ccc(/C=C/c2ccncc2)cc1 [[^11C]TZ-20-35]"
  READOUT_TYPE: "Biodistribution: Spleen"
  VALUE_MEASURED: 3.44
- COMPOUND: "O=C(Nc1ccc(OCC[18F])cc1)c1ccc(/C=C/c2ccncc2)cc1 [[^18F]TZ-23-88]"
  READOUT_TYPE: "Biodistribution: Spleen"
  VALUE_MEASURED: 1.59
- COMPOUND: "O=C(Nc1ccc(OCCC[18F])cc1)c1ccc(/C=C/c2ccncc2)cc1 [[^18F]TZ-23-92]"
  READOUT_TYPE: "Biodistribution: Spleen"
  VALUE_MEASURED: 1.69

Return value of Biodistribution: Spleen for input COc1ccc(NC(=O)c2ccc(/C=C/c3ccncc3)cc2)cc1 [[^11C]TZ-20-83] , no commentary. 3.49

* * *

# TARGET_SYSTEM: α-synuclein fibrils (Homo sapiens, UniProt P37840)
# Construct: made in house; host or cells: E. coli BL21(DE3)RIL
# EXPERIMENTAL_PROTOCOL: ThT competitive assay for α-synuclein fibrils (Table 1)
# Assay type: binding
# RECORDED_CONDITIONS: average; read-out: Ki (nM) α-syn (avg)
# Procedure: Upon binding to amyloid fibrils, a peak at approximately 440 nm becomes dominant with the fluorescent emission maximum shifted to 480 nm. This is accompanied by a strong enhancement of the fluorescence. […] Once the ThT-α-synuclein saturation binding curve and dissociation constant (Kd) were determined the competitive assay for determining the binding affinity of various test compounds was conducted. […] The fluorescent intensity for each cell was measured by the fluorescence reader at λex and λem. […]
Quick list: log10 of Ki per entry.
The common logarithm of Ki in nM is what is listed.

Below: 2 compounds and their reported log10 of Ki.
- COMPOUND: "COc1ccc2nc(/C=C/c3ccoc3)ccc2c1"
  log10 of Ki: 1.84
- COMPOUND: "COc1ccc(C(=O)C2CCN(C(=O)c3ccc(/C=C/c4ccncc4)cc3)CC2)cc1"
  log10 of Ki: 2.26

Return value of log10 of Ki for input "COc1ccc(/C=C/c2ccco2)cc1" , no commentary. 2.54

Return value of log10 of Ki for input "CN(C)c1ccc(/C=C/C=C/c2cccs2)cc1" , no commentary. 1.84

Return value of log10 of Ki for input "Fc1ccc(-c2ccc(-c3nc4cc(Br)ccc4o3)cc2C(F)(F)F)cn1" , no commentary. 3.19

* * *

# TARGET_SYSTEM: Aβ fibrils (Homo sapiens)
# Sequence (P05067 672-713 limits assumed): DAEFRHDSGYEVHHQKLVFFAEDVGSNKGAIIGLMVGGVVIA
# EXPERIMENTAL_PROTOCOL: ThT competitive assay for Aβ fibrils (Table 2)
# Type: binding
# Parameters: made in house; host or cells: E. coli
# RECORDED_CONDITIONS: Aβ fibrils; individual determinations; read-out: EC50(nM) EC50
READOUT_TYPE: EC50 (nM)
State the answer as a number, implicitly in nM.

Tell me EC50 of COc1ccc(/C=C/c2cccs2)cc1 [TZ-34-26] when tested on Aβ fibrils (Homo sapiens). 6660

Tell me EC50 of COc1ccc(/C=C/c2ccc(-c3cnc(C)s3)s2)cc1 [TZ-34-43] when tested on Aβ fibrils (Homo sapiens). 854

Tell me EC50 of COc1ccc2nc(/C=C/c3ccnc(OC)c3)ccc2c1 [TZ-36-28-2T] when tested on Aβ fibrils (Homo sapiens). 715

* * *

# TARGET_SYSTEM: α-synuclein fibrils (Homo sapiens)
# Construct: made in house; host or cells: E. coli BL21(DE3)RIL
# EXPERIMENTAL_PROTOCOL: Thioflavin T competition assay (Example 130, Table 9), α-synuclein fibrils
# Type: binding
# RECORDED_CONDITIONS: individual determinations; read-out: α-synuclein Ki
READOUT_TYPE: Ki (nM)
State the answer as a number, implicitly in nM.

Below: 2 compounds and their reported Ki.
- COMPOUND: "COc1cc(/C=C/c2ccc3cc(OC(C)C)ccc3n2)ccn1"
  READOUT_TYPE: "Ki"
  VALUE_MEASURED: 49
- COMPOUND: "COCOc1ccc2nc(/C=C/c3ccnc(OC)c3)ccc2c1"
  READOUT_TYPE: "Ki"
  VALUE_MEASURED: 42

Now look at this one.
Return value of Ki for input "COc1ccc2nc(C#Cc3ccnc(OC)c3)ccc2c1" , no commentary. 233

* * *

# TARGET_SYSTEM: α-synuclein fibrils (Homo sapiens, UniProt P37840)
# Construct: made in house; host or cells: E. coli BL21(DE3)RIL
# EXPERIMENTAL_PROTOCOL: ThT competitive assay for α-synuclein fibrils (Table 1)
# Assay type: binding
# RECORDED_CONDITIONS: α-synuclein fibrils; individual determinations; read-out: EC50 (nM) EC50
Quick list: EC50 per entry.
State the answer as a number, implicitly in nM.

Below: 10 compounds and their reported EC50.
- COMPOUND: "OCc1ccc2oc(-c3ccc(-c4ccc(F)nc4)c(C(F)(F)F)c3)nc2c1 [TZ-31-123]"
  VALUE_MEASURED: 82000
- COMPOUND: "Ic1ccc(/C=C/c2ccsc2)cc1 [TZ-34-64]"
  VALUE_MEASURED: 300
- COMPOUND: "Fc1ccc2nc(/C=C/c3cnccn3)ccc2c1 [TZ-36-22]"
  VALUE_MEASURED: 286
- COMPOUND: "O=[N+]([O-])c1ccc(/C=C/c2cccs2)cc1 [TZ-34-74]"
  VALUE_MEASURED: 145
- COMPOUND: "O=[N+]([O-])c1ccc2nc(/C=C/c3cnccn3)ccc2c1 [TZ-36-20]"
  VALUE_MEASURED: 2420
- COMPOUND: "COc1ccc(/C=C/c2cc3ccccc3s2)cc1 [TZ-34-87]"
  VALUE_MEASURED: 2310
- COMPOUND: "Fc1ccc(/C=C/c2cccs2)cc1 [TZ-34-60]"
  VALUE_MEASURED: 1000
- COMPOUND: "COc1ccc2nc(/C=C/c3cccs3)ccc2c1 [TZ-36-50]"
  VALUE_MEASURED: 1050
- COMPOUND: "Brc1ccc(/C=C/c2ccsc2)cc1 [TZ-34-58]"
  VALUE_MEASURED: 834
- COMPOUND: "Fc1ccc(/C=C/c2ccsc2)cc1 [TZ-34-59]"
  VALUE_MEASURED: 2250

Now look at this one.
Tell me EC50 of COc1cc(/C=C/c2ccc3cc(OC(C)C)ccc3n2)ccn1 [TZ-36-138] when tested on α-synuclein fibrils (Homo sapiens, UniProt P37840). 128
